- Tested System: CDK2/CycA (Homo sapiens (Human), UniProt P24941)
- Test Details: Kinase activity assay IC50 profile
Assay Endpoint: pIC50
Would you please state pIC50, meaning minus log10 of the concentration in mol/L, as a bare number?

Which pIC50 value belongs to COc1cc(F)ccc1-c1ccnc(NC(=O)[C@H]2CCC[C@@H](NC(C)=O)C2)c1 (relative stereo) [Example 33] ? 6.77

----------
- Tested System: CDK9 (Homo sapiens (Human))
- Sequence (P50750 whole entry): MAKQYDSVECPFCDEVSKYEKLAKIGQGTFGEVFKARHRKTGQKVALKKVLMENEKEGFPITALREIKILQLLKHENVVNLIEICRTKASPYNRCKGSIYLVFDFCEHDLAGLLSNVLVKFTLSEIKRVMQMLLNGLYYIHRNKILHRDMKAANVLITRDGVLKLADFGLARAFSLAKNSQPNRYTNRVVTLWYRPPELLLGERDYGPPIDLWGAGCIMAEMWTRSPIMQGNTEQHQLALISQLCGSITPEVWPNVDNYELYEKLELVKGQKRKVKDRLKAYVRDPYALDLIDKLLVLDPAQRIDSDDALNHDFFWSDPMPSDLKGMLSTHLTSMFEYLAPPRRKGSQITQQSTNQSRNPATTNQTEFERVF
- Sequence (O60563 whole entry partner): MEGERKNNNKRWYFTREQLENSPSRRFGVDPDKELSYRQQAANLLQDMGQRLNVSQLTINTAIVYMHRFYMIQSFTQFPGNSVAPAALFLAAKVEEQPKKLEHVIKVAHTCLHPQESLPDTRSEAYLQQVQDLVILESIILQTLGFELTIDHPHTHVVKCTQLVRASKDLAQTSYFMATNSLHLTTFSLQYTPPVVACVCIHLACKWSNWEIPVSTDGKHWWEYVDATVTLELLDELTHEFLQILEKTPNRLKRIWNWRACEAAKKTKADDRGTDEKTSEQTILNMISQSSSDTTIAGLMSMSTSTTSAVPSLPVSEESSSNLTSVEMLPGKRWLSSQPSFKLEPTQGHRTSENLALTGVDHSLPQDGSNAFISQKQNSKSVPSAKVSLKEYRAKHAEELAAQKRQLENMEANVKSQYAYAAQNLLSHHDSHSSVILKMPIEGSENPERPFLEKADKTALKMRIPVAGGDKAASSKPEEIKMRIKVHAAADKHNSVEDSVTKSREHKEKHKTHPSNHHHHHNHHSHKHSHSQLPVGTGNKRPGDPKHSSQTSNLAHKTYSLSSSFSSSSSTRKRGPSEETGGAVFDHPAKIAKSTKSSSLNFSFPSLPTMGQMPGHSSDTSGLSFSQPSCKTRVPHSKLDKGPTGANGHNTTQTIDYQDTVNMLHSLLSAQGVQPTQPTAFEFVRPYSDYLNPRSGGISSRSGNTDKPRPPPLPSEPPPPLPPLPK
- Test Details: In vitro kinase inhibition, KinaseProfiler service of Millipore, residual activity
- Format: biochemical
- Measurement Setup: residual activity at 100 nM compound; read-out: CDK9 100 nM (RA in %)
Could you mark each record Y if its remaining activity at 0.1 µM falls strictly under 8%, and N if it equals or exceeds it?

Given the entry COc1cc(F)ccc1-c1ccnc(NC(=O)[C@H]2CCC[C@@H](NC(C)=O)C2)c1 (relative stereo) [Example 33] , would its reported remaining activity at 0.1 µM be below 8%? Y

Given the entry COc1cc(F)ccc1-c1ccnc(NC(=O)[C@H]2CC[C@@H](Nc3ccccc3)CC2)c1 [Example 36] , would its reported remaining activity at 0.1 µM be below 8%? N

Given the entry COc1cc(F)ccc1-c1ccnc(NC(=O)Cc2ccccc2)c1 [Example 7] , would its reported remaining activity at 0.1 µM be below 8%? N

Given the entry COc1cc(F)ccc1-c1ccnc(NC(=O)C(C)Cc2cccnc2)c1 (centres unmarked) [Example 24] , would its reported remaining activity at 0.1 µM be below 8%? N

Given the entry COc1cc(F)ccc1-c1ccnc(NC(=O)C(C)c2cccnc2)c1 (centres unmarked) [Example 13] , would its reported remaining activity at 0.1 µM be below 8%? Y

Given the entry COc1cc(F)ccc1-c1ccnc(NC(=O)[C@@H](C)c2cccnc2)c1 (stereo in doubt) [Example 12] , would its reported remaining activity at 0.1 µM be below 8%? N

Given the entry COc1cc(F)ccc1-c1ccnc(NC(=O)[C@H]2CC[C@@H](N)CC2)c1 [Example 4] , would its reported remaining activity at 0.1 µM be below 8%? Y

Given the entry COc1cc(F)ccc1-c1ccnc(NC(=O)[C@H]2CC[C@@H](Nc3ccncc3)CC2)c1 [Example 32] , would its reported remaining activity at 0.1 µM be below 8%? Y

Given the entry COc1cc(F)ccc1-c1ccnc(NC(=O)C2CCNCC2)c1 [Example 3] , would its reported remaining activity at 0.1 µM be below 8%? N

Given the entry COc1cc(F)ccc1-c1ccnc(NC(=O)CC(C)c2ccc(N3CCN(C)CC3)cc2)c1 (centres unmarked) [Example 29] , would its reported remaining activity at 0.1 µM be below 8%? N

Given the entry COc1cc(F)ccc1-c1ccnc(NC(=O)Cc2ccnc(Cl)c2)c1 [Example 19] , would its reported remaining activity at 0.1 µM be below 8%? N

Given the entry COc1ccc([C@H](C)C(=O)Nc2cc(-c3ccc(F)cc3OC)ccn2)cc1 [Example 11] , would its reported remaining activity at 0.1 µM be below 8%? Y

Given the entry COc1ccc(CC(=O)Nc2cc(-c3ccc(F)cc3OC)ccn2)cc1 [Example 6] , would its reported remaining activity at 0.1 µM be below 8%? N

Given the entry COc1cc(F)ccc1-c1ccnc(NC(=O)C2CNC(=O)C2)c1 (centres unmarked) [Example 5] , would its reported remaining activity at 0.1 µM be below 8%? Y

Given the entry COc1cc(F)ccc1-c1ccnc(NC(=O)CC(C)c2ccncc2)c1 (centres unmarked) [Example 21] , would its reported remaining activity at 0.1 µM be below 8%? N

Given the entry COc1cc(F)ccc1-c1ccnc(NC(=O)CC2CCCCC2)c1 [Example 2] , would its reported remaining activity at 0.1 µM be below 8%? N

Given the entry COc1cc(F)ccc1-c1ccnc(NC(=O)C2CCCCC2)c1 [Example 1] , would its reported remaining activity at 0.1 µM be below 8%? N

Given the entry COc1cc(F)ccc1-c1ccnc(NC(=O)[C@@H]2CC[C@H](Nc3ccccc3)C2)c1 [Example 39] , would its reported remaining activity at 0.1 µM be below 8%? Y

Given the entry COc1cc(F)ccc1-c1ccnc(NC(=O)[C@H]2CC[C@@H](Nc3nccs3)CC2)c1 [Example 35] , would its reported remaining activity at 0.1 µM be below 8%? Y

Given the entry COc1cc(F)ccc1-c1ccnc(NC(=O)[C@@H]2CC[C@H](NCc3ccccc3)C2)c1 [Example 37] , would its reported remaining activity at 0.1 µM be below 8%? Y

Given the entry COc1cc(F)ccc1-c1ccnc(NC(=O)Cc2ccc(N3CCN(C)CC3)cc2)c1 [Example 20] , would its reported remaining activity at 0.1 µM be below 8%? Y

Given the entry COc1cc(F)ccc1-c1ccnc(NC(=O)[C@H]2CC[C@@H](NCc3ccccc3)CC2)c1 [Example 38] , would its reported remaining activity at 0.1 µM be below 8%? Y

Given the entry COc1cc(F)ccc1-c1ccnc(NC(=O)CC(C)c2cccnc2)c1 (centres unmarked) [Example 23] , would its reported remaining activity at 0.1 µM be below 8%? N

Given the entry COc1ccc(CC(=O)Nc2cc(-c3ccc(F)cc3OC)ccn2)cn1 [Example 14] , would its reported remaining activity at 0.1 µM be below 8%? Y

Given the entry COc1ccc(F)cc1-c1ccnc(NC(=O)[C@@H](C)c2ccccc2)c1 [Example 10] , would its reported remaining activity at 0.1 µM be below 8%? N

Given the entry COc1cc(F)ccc1-c1ccnc(NC(=O)Cc2cccs2)c1 [Example 9] , would its reported remaining activity at 0.1 µM be below 8%? N

Given the entry COc1cc(F)ccc1-c1ccnc(NC(=O)[C@H]2CC[C@@H](Nc3ccccn3)CC2)c1 [Example 30] , would its reported remaining activity at 0.1 µM be below 8%? Y

Given the entry COc1cc(F)ccc1-c1ccnc(NC(=O)[C@@H]2CCC[C@H](NC(C)=O)C2)c1 [Example 40] , would its reported remaining activity at 0.1 µM be below 8%? N

Given the entry COc1cc(F)ccc1-c1ccnc(NC(=O)C(C)Cc2ccc(N3CCN(C)CC3)cc2)c1 (centres unmarked) [Example 28] , would its reported remaining activity at 0.1 µM be below 8%? N

Given the entry COc1cc(F)ccc1-c1ccnc(NC(=O)C(C)Cc2ccncc2)c1 (centres unmarked) [Example 22] , would its reported remaining activity at 0.1 µM be below 8%? N

Given the entry COc1cc(F)ccc1-c1ccnc(NC(=O)Cc2ccncc2)c1 [Example 8] , would its reported remaining activity at 0.1 µM be below 8%? Y
